src = ChEMBL document CHEMBL1121408

- System: Mus musculus
- Test Details: Percent increase in life span of mice bearing L1210 ascites cells compared to control (in vivo)
- Assay type: functional
Attribute Measured: ILC (%)
Response body: numeric value in %, unit text excluded.

- Molecule: "CCOP(=O)(CCC=O)c1ccccc1 (stereo not given)"
  System Under Test: "Mus musculus"
  ILC [%]: 175
- Molecule: "Cc1ncc(CO)c(C=O)c1O [PYRIDOXAL]"
  System Under Test: "Mus musculus"
  ILC [%]: 164
- Molecule: "CCOP(=O)(CC=O)OCC"
  System Under Test: "Mus musculus"
  ILC [%]: 180
- Molecule: "CCOC(CCP(=O)(OCC)OCC)OCC"
  System Under Test: "Mus musculus"
  ILC [%]: 204

As a next step, examine the molecule that follows.
Entry CCOC(CCP(=O)(OCC)c1ccccc1)OCC (stereo not given) , Mus musculus data, ILC value: 166
